- experimental-details: Approximate ambient-temperature solubility, solvent addition method
- Type: physicochemical
- condition-info: organic solvent or mixture, thermodynamic from solid; EtOAc, ambient temperature
Structures can show the parent of a compound that is named as a salt.
measured-endpoint: solubility

Form field: reported solubility of CC[C@H]1CC2C[C@H]3c4[nH]c5ccc(O)cc5c4CCN(C2)C13 [HCl, Form A, noribogaine hydrochloride]
< 1000 µg/mL

====

- experimental-details: Approximate ambient-temperature solubility, solvent addition method
- Assay type: physicochemical
- condition-info: organic solvent or mixture, thermodynamic from solid; Acetone, ambient temperature
Where a name gives a salt, the structure may show the parent alone.
measured-endpoint: solubility

Form field: reported solubility of CC[C@H]1CC2C[C@H]3c4[nH]c5ccc(O)cc5c4CCN(C2)C13 [HCl, Form A, noribogaine hydrochloride]
< 1000 µg/mL
